procedureText: Pharmacokinetics in Sprague-Dawley rats
Type: in vivo
particulars: rat, plasma, po; female Sprague Dawley rats, p.o. 1 mg/kg
readoutName: Cmax (ng/mL)
Please reply with the bare figure in ng/mL and do not write the unit itself.

Find the measured Cmax of NC(=O)[C@](O)(CNc1nc(-c2cc(-c3ccon3)n(Cc3ccccc3F)n2)ncc1F)C(F)(F)F and report it.
198

* * *

procedureText: Plasma protein binding (equilibrium dialysis), human
Type: in vitro ADME
particulars: 1 and 10 μM, equilibrium dialysis 18 h, read-out: bound to plasma proteins (converted)
readoutName: fraction unbound at 18 h
Answer with the value's number alone.

Find the measured fraction unbound at 18 h of NC(=O)[C@](O)(CNc1nc(-c2cc(-c3ccon3)n(Cc3ccccc3F)n2)ncc1F)C(F)(F)F [olinciguat] and report it.
0.0199

* * *

procedureText: Pharmacokinetics in Sprague-Dawley rats
Type: in vivo
particulars: rat, plasma, po; female Sprague Dawley rats, p.o. 1 mg/kg
readoutName: half-life (h)
Please reply with the bare figure in h and do not write the unit itself.

Find the measured half-life of NC(=O)[C@](O)(CNc1nc(-c2cc(-c3ccon3)n(Cc3ccccc3F)n2)ncc1F)C(F)(F)F and report it.
3.9

* * *

procedureText: Rat post-myocardial infarction model
Format: in vivo
particulars: male, Sprague-Dawley, rat, plasma, oral; MI rats, 30 mg/kg/day in chow; read-out: olinciguat plasma concentration at week 8
readoutName: concentration at 8 weeks (nM)
Please reply with the bare figure in nM and do not write the unit itself.

Find the measured concentration at 8 weeks of NC(=O)[C@](O)(CNc1nc(-c2cc(-c3ccon3)n(Cc3ccccc3F)n2)ncc1F)C(F)(F)F and report it.
167

* * *

procedureText: Pharmacokinetics in Sprague-Dawley rats
Assay type: in vivo
particulars: rat, plasma, po; male Sprague Dawley rats, p.o. 1 mg/kg
readoutName: Cmax (ng/mL)
Please reply with the bare figure in ng/mL and do not write the unit itself.

Find the measured Cmax of NC(=O)[C@](O)(CNc1nc(-c2cc(-c3ccon3)n(Cc3ccccc3F)n2)ncc1F)C(F)(F)F and report it.
96.4

* * *

procedureText: Olinciguat plasma concentration in hemodynamic study (pooled Wistar and SHR)
Format: in vivo, rat
particulars: male, Wistar and SHR (spontaneously hypertensive rat), pooled, rat, plasma, oral; 1 mg/kg p.o. QD; mean and SEM of 6 animals (n=3 Wistar, n=3 SHR); read-out: average plasma concentration 1 h after dosing on Day 4
readoutName: concentration at 1 h

Find the measured concentration at 1 h of NC(=O)[C@](O)(CNc1nc(-c2cc(-c3ccon3)n(Cc3ccccc3F)n2)ncc1F)C(F)(F)F and report it.
57.3 nM

* * *

procedureText: Plasma protein binding (equilibrium dialysis), rat
Format: in vitro ADME
particulars: both sexes, Sprague Dawley, 1 and 10 μM, equilibrium dialysis 18 h, no gender difference, read-out: bound to plasma proteins
readoutName: fraction unbound at 18 h
Answer with the value's number alone.

Find the measured fraction unbound at 18 h of NC(=O)[C@](O)(CNc1nc(-c2cc(-c3ccon3)n(Cc3ccccc3F)n2)ncc1F)C(F)(F)F and report it.
0.01

* * *

measurementTarget: sGC (Homo sapiens, UniProt Q02108+Q02153)
Construct: HEK-293 cells endogenously expressing sGC were treated with olinciguat; host or cells: HEK-293
Sequence (Q02153 whole entry): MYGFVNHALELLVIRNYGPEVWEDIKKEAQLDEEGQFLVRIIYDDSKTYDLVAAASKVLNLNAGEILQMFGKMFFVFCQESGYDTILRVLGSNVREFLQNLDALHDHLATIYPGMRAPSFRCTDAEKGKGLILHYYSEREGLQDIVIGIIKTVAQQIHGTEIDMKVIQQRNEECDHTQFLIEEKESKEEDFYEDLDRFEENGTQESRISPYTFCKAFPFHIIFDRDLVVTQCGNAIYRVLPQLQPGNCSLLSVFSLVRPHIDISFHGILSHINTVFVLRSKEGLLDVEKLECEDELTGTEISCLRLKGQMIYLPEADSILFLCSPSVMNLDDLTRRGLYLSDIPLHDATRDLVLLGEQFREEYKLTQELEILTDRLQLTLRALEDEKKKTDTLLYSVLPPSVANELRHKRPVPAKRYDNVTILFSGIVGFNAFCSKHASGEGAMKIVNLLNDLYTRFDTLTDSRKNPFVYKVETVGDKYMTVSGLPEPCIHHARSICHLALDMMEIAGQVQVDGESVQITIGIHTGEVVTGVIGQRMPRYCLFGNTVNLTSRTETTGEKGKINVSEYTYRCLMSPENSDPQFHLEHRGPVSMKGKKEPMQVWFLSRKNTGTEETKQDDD
Sequence (Q02108 whole entry): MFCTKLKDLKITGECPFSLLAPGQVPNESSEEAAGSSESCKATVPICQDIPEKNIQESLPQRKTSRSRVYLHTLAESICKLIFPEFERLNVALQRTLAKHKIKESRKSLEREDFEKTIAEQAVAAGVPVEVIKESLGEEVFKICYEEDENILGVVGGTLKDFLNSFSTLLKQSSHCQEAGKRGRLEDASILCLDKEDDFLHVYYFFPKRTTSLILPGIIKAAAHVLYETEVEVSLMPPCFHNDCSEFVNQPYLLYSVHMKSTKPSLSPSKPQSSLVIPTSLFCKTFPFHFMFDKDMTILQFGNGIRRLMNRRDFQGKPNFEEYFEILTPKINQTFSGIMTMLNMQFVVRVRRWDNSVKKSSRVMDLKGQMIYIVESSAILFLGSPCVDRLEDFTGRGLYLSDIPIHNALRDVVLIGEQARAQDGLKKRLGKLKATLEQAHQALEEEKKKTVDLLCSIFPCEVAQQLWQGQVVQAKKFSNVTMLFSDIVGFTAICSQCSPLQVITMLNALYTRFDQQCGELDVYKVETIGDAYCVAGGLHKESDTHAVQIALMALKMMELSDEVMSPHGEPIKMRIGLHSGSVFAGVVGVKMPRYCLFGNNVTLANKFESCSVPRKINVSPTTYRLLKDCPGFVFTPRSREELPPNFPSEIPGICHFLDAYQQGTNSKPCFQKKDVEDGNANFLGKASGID
procedureText: sGC whole cell assay (HEK-293, cGMP production)
Assay type: cell-based
particulars: Table 2 summary; 10 µM DETA; read-out: Human cellular sGC assay (HEK-293) EC50, olinciguat concentration (range = 95% CI)
readoutName: EC50

Find the measured EC50 of NC(=O)[C@](O)(CNc1nc(-c2cc(-c3ccon3)n(Cc3ccccc3F)n2)ncc1F)C(F)(F)F [olinciguat] and report it.
42.7 to 105 nM
